The reported measurements were obtained from BigSolDB 2.1.

settings: in 1,4-dioxane, 303.15 K
RECORDED ENDPOINT: solubility (mole fraction)

# compound CSCCC(NC(C)=O)C(=O)O (racemic) ; its solubility (mole fraction) = 0.073

----------
conditions: in 1,4-dioxane, 293.15 K
RECORDED ENDPOINT: solubility (mole fraction)
Output: the number by itself.

# compound CSCCC(NC(C)=O)C(=O)O (racemic) ; its solubility (mole fraction) = 0.0428

----------
settings: in ethanol, 303.15 K
RECORDED ENDPOINT: solubility (mole fraction)
Output: the number by itself.

# compound CSCCC(NC(C)=O)C(=O)O (racemic) ; its solubility (mole fraction) = 0.0954

----------
conditions: in n-butanol, 293.15 K
RECORDED ENDPOINT: solubility (mole fraction)
Output: the number by itself.

# molecule CSCCC(NC(C)=O)C(=O)O (racemic) ; its solubility (mole fraction) = 0.0393

----------
settings: in methyl acetate, 293.15 K
RECORDED ENDPOINT: solubility (mole fraction)
Output: the number by itself.

# compound CSCCC(NC(C)=O)C(=O)O (racemic) ; its solubility (mole fraction) = 0.00525

----------
conditions: in 2-butanone, 293.15 K
RECORDED ENDPOINT: solubility (mole fraction)

# compound CSCCC(NC(C)=O)C(=O)O (racemic) ; its solubility (mole fraction) = 0.0131

----------
settings: in dichloromethane, 313.15 K
RECORDED ENDPOINT: solubility (mole fraction)
Output: the number by itself.

# compound CSCCC(NC(C)=O)C(=O)O (racemic) ; its solubility (mole fraction) = 0.0007

----------
details: in n-butanol, 313.15 K
RECORDED ENDPOINT: solubility (mole fraction)
Output: the number by itself.

# compound CSCCC(NC(C)=O)C(=O)O (racemic) ; its solubility (mole fraction) = 0.0888

----------
conditions: in sec-butanol, 323.15 K
RECORDED ENDPOINT: solubility (mole fraction)
Output: the number by itself.

# molecule CSCCC(NC(C)=O)C(=O)O (racemic) ; its solubility (mole fraction) = 0.121

----------
settings: in n-pentanol, 283.15 K
RECORDED ENDPOINT: solubility (mole fraction)
Output: the number by itself.

# compound CSCCC(NC(C)=O)C(=O)O (racemic) ; its solubility (mole fraction) = 0.0215

----------
settings: in methyl acetate, 323.15 K
RECORDED ENDPOINT: solubility (mole fraction)
Output: the number by itself.

# compound CSCCC(NC(C)=O)C(=O)O (racemic) ; its solubility (mole fraction) = 0.0243

----------
settings: in ethyl acetate, 323.15 K
RECORDED ENDPOINT: solubility (mole fraction)
Output: the number by itself.

# molecule CSCCC(NC(C)=O)C(=O)O (racemic) ; its solubility (mole fraction) = 0.0153

----------
details: in n-pentanol, 313.15 K
RECORDED ENDPOINT: solubility (mole fraction)
Output: the number by itself.

# molecule CSCCC(NC(C)=O)C(=O)O (racemic) ; its solubility (mole fraction) = 0.0684

----------
conditions: in ethyl acetate, 303.15 K
RECORDED ENDPOINT: solubility (mole fraction)
Output: the number by itself.

# molecule CSCCC(NC(C)=O)C(=O)O (racemic) ; its solubility (mole fraction) = 0.00641

----------
settings: in methyl acetate, 313.15 K
RECORDED ENDPOINT: solubility (mole fraction)
Output: the number by itself.

# molecule CSCCC(NC(C)=O)C(=O)O (racemic) ; its solubility (mole fraction) = 0.0139

----------
settings: in methyl acetate, 303.15 K
RECORDED ENDPOINT: solubility (mole fraction)

# compound CSCCC(NC(C)=O)C(=O)O (racemic) ; its solubility (mole fraction) = 0.0084

----------
conditions: in sec-butanol, 293.15 K
RECORDED ENDPOINT: solubility (mole fraction)

# compound CSCCC(NC(C)=O)C(=O)O (racemic) ; its solubility (mole fraction) = 0.0375

----------
conditions: in 2-butanone, 303.15 K
RECORDED ENDPOINT: solubility (mole fraction)
Output: the number by itself.

# compound CSCCC(NC(C)=O)C(=O)O (racemic) ; its solubility (mole fraction) = 0.0207

----------
details: in n-butanol, 323.15 K
RECORDED ENDPOINT: solubility (mole fraction)
Output: the number by itself.

# compound CSCCC(NC(C)=O)C(=O)O (racemic) ; its solubility (mole fraction) = 0.127

----------
settings: in isopropanol, 303.15 K
RECORDED ENDPOINT: solubility (mole fraction)

# molecule CSCCC(NC(C)=O)C(=O)O (racemic) ; its solubility (mole fraction) = 0.066

----------
settings: in 2-butanone, 283.15 K
RECORDED ENDPOINT: solubility (mole fraction)
Output: the number by itself.

# compound CSCCC(NC(C)=O)C(=O)O (racemic) ; its solubility (mole fraction) = 0.00843

----------
conditions: in acetonitrile, 303.15 K
RECORDED ENDPOINT: solubility (mole fraction)
Output: the number by itself.

# molecule CSCCC(NC(C)=O)C(=O)O (racemic) ; its solubility (mole fraction) = 0.00877

----------
settings: in sec-butanol, 313.15 K
RECORDED ENDPOINT: solubility (mole fraction)
Output: the number by itself.

# compound CSCCC(NC(C)=O)C(=O)O (racemic) ; its solubility (mole fraction) = 0.0839

----------
settings: in water, 293.15 K
RECORDED ENDPOINT: solubility (mole fraction)

# compound CSCCC(NC(C)=O)C(=O)O (racemic) ; its solubility (mole fraction) = 0.008

----------
conditions: in isopropanol, 323.15 K
RECORDED ENDPOINT: solubility (mole fraction)
Output: the number by itself.

# compound CSCCC(NC(C)=O)C(=O)O (racemic) ; its solubility (mole fraction) = 0.14

----------
conditions: in isobutanol, 323.15 K
RECORDED ENDPOINT: solubility (mole fraction)
Output: the number by itself.

# compound CSCCC(NC(C)=O)C(=O)O (racemic) ; its solubility (mole fraction) = 0.114

----------
details: in acetonitrile, 293.15 K
RECORDED ENDPOINT: solubility (mole fraction)
Output: the number by itself.

# molecule CSCCC(NC(C)=O)C(=O)O (racemic) ; its solubility (mole fraction) = 0.00491

----------
conditions: in water, 313.15 K
RECORDED ENDPOINT: solubility (mole fraction)
Output: the number by itself.

# compound CSCCC(NC(C)=O)C(=O)O (racemic) ; its solubility (mole fraction) = 0.0231

----------
settings: in methanol, 313.15 K
RECORDED ENDPOINT: solubility (mole fraction)
Output: the number by itself.

# compound CSCCC(NC(C)=O)C(=O)O (racemic) ; its solubility (mole fraction) = 0.187

----------
details: in ethanol, 323.15 K
RECORDED ENDPOINT: solubility (mole fraction)

# molecule CSCCC(NC(C)=O)C(=O)O (racemic) ; its solubility (mole fraction) = 0.184

----------
conditions: in water, 323.15 K
RECORDED ENDPOINT: solubility (mole fraction)
Output: the number by itself.

# compound CSCCC(NC(C)=O)C(=O)O (racemic) ; its solubility (mole fraction) = 0.0543

----------
settings: in acetonitrile, 323.15 K
RECORDED ENDPOINT: solubility (mole fraction)

# compound CSCCC(NC(C)=O)C(=O)O (racemic) ; its solubility (mole fraction) = 0.0326

----------
settings: in methanol, 323.15 K
RECORDED ENDPOINT: solubility (mole fraction)
Output: the number by itself.

# compound CSCCC(NC(C)=O)C(=O)O (racemic) ; its solubility (mole fraction) = 0.262

----------
details: in acetonitrile, 283.15 K
RECORDED ENDPOINT: solubility (mole fraction)
Output: the number by itself.

# compound CSCCC(NC(C)=O)C(=O)O (racemic) ; its solubility (mole fraction) = 0.00292

----------
conditions: in methyl acetate, 283.15 K
RECORDED ENDPOINT: solubility (mole fraction)

# compound CSCCC(NC(C)=O)C(=O)O (racemic) ; its solubility (mole fraction) = 0.00352

----------
details: in acetone, 313.15 K
RECORDED ENDPOINT: solubility (mole fraction)
Output: the number by itself.

# compound CSCCC(NC(C)=O)C(=O)O (racemic) ; its solubility (mole fraction) = 0.0587

----------
details: in isobutanol, 283.15 K
RECORDED ENDPOINT: solubility (mole fraction)
Output: the number by itself.

# molecule CSCCC(NC(C)=O)C(=O)O (racemic) ; its solubility (mole fraction) = 0.0229

----------
conditions: in isopropanol, 283.15 K
RECORDED ENDPOINT: solubility (mole fraction)
Output: the number by itself.

# compound CSCCC(NC(C)=O)C(=O)O (racemic) ; its solubility (mole fraction) = 0.029

----------
settings: in n-butanol, 283.15 K
RECORDED ENDPOINT: solubility (mole fraction)
Output: the number by itself.

# molecule CSCCC(NC(C)=O)C(=O)O (racemic) ; its solubility (mole fraction) = 0.0247

----------
details: in dichloromethane, 283.15 K
RECORDED ENDPOINT: solubility (mole fraction)

# compound CSCCC(NC(C)=O)C(=O)O (racemic) ; its solubility (mole fraction) = 0.00024
